Exercise: state measured Kd for each of the compounds provided.
# measurement.target: HSA (Homo sapiens)
# Construct: HSA and Tris were obtained from Sigma-Aldrich, St. Louis, MI, USA; purchased Sigma-Aldrich
# Sequence (P02768 25-609): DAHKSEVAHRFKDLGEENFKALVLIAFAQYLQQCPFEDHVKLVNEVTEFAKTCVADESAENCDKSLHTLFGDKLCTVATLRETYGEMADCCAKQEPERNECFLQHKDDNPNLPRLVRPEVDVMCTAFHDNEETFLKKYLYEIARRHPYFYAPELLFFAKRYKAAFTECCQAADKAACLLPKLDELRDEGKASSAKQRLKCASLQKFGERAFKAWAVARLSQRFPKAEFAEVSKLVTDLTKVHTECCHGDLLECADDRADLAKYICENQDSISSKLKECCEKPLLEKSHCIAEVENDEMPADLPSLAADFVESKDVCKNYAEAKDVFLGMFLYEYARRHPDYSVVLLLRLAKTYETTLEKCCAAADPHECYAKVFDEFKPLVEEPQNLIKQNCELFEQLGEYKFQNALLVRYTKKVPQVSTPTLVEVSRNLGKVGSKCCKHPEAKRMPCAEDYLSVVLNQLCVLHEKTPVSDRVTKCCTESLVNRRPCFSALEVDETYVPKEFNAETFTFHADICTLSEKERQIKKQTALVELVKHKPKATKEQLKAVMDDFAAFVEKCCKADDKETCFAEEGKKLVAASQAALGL
# assay.comment: Site-specific competitive experiment (fluorescence) with site markers
# Assay type: binding
# measurement.setup: Ka, with Ibuprofen, [Ligands]/[Site Marker] 1:1; room temperature; n = 3
# output: numeric value plus its unit

State the recorded Kd for this entry: CC(C)(c1cc(Br)c(O)c(Br)c1)c1cc(Br)c(O)c(Br)c1
740 nM

Please report the recorded Kd for CC(C)(c1cc(Cl)c(O)c(Cl)c1)c1cc(Cl)c(O)c(Cl)c1 .
1320 nM

Source: paper PMC10487517
